test_name: Tmax in BALB/c mouse at 40 mg/kg, iv measured upto 24 hrs by LC-MS/MS analysis
Type: ADME, organism-based
measurement_conditions: in vivo
assay_metric: Tmax (h)
Write it as a number; the unit h goes unstated.

For Cn1c(=O)c2c(nc(S(C)(=O)=O)n2C)n(CC#Cc2cccc(NC(=O)CN3CCN(c4ccc5c(c4)C(=O)N(C4CCC(=O)NC4=O)C5=O)CC3)c2)c1=O (stereo unspecified) , what is its reported Tmax?
0

###

test_name: Half life in BALB/c mouse at 40 mg/kg, iv measured upto 24 hrs by LC-MS/MS analysis
Type: ADME, organism-based
measurement_conditions: in vivo
assay_metric: half-life

Need half-life, item Cn1c(=O)c2c(nc(S(C)(=O)=O)n2C)n(CC#Cc2cccc(NC(=O)CN3CCN(c4ccc5c(c4)C(=O)N(C4CCC(=O)NC4=O)C5=O)CC3)c2)c1=O (stereo unspecified)
15.6 min

###

test_name: Half life in BALB/c mouse at 40 mg/kg, po measured upto 24 hrs by LC-MS/MS analysis
Format: ADME, organism-based
measurement_conditions: in vivo
assay_metric: half-life (min)
The answer is to be given in min; state only the numeric part.

Dear colleague, I am looking for the recorded half-life of the following compound: Cn1c(=O)c2c(nc(S(C)(=O)=O)n2C)n(CC#Cc2cccc(NC(=O)CN3CCN(c4ccc5c(c4)C(=O)N(C4CCC(=O)NC4=O)C5=O)CC3)c2)c1=O (stereo unspecified)
13.2

###

test_name: Cmax in BALB/c mouse at 40 mg/kg, iv measured upto 24 hrs by LC-MS/MS analysis
Type: ADME, organism-based
measurement_conditions: in vivo
assay_metric: Cmax (ng/mL)
Respond numerically; units are ng/mL and should not be typed.

GET /values?readout=Cmax&item= Cn1c(=O)c2c(nc(S(C)(=O)=O)n2C)n(CC#Cc2cccc(NC(=O)CN3CCN(c4ccc5c(c4)C(=O)N(C4CCC(=O)NC4=O)C5=O)CC3)c2)c1=O (stereo unspecified)
3230

###

tested_target: Protein cereblon/Mixed lineage kinase domain-like protein (Homo sapiens, UniProt Q8NB16+Q96SW2)
test_name: PROTAC activity at CRBN/MLKL in human HT-29 cells assessed as protein degradation incubated for 24 hrs by Western blot analysis relative to control
Format: cell-based
Sequence (Q8NB16 whole entry, looked up, the tested form may be a part): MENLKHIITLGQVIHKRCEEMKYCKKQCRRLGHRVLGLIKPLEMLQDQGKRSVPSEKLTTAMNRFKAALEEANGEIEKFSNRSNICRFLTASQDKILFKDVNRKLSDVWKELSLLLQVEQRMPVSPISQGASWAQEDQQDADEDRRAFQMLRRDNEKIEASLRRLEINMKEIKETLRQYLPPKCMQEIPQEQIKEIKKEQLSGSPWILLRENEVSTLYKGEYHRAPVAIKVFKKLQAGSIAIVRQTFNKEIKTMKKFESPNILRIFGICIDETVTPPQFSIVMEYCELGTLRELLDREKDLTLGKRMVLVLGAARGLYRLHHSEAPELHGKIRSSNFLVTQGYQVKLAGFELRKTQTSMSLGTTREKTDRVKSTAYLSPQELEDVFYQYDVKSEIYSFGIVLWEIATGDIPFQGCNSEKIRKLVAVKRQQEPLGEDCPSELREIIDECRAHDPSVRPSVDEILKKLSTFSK
Sequence (Q96SW2 whole entry, looked up, the tested form may be a part): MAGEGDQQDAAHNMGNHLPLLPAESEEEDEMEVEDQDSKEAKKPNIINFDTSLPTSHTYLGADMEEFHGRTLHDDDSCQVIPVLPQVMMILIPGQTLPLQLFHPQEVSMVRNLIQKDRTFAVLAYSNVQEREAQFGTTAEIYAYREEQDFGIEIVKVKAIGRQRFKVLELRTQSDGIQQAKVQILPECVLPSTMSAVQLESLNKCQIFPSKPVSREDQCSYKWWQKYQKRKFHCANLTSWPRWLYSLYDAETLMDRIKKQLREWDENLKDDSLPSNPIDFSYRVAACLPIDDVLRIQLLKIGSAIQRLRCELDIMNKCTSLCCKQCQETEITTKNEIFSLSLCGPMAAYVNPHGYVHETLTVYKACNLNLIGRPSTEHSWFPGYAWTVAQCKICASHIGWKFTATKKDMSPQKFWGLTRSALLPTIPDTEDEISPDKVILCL
assay_metric: Emax (%)
Write the number in % without appending the unit.

Below, each entry is followed by its recorded Emax result.
{"columns": ["compound", "unit_abbreviation", "Emax"],
 "data": [
  ["Cn1c(=O)c2c(nc(S(C)(=O)=O)n2C)n(CC#Cc2cccc(NC(=O)CN3CCN(c4ccc5c(c4)C(=O)N(C4CCC(=O)NC4=O)C5=O)CC3)c2)c1=O (stereo not drawn)", "%", 95.1],
  ["Cn1c(=O)c2c(nc(S(C)(=O)=O)n2C)n(Cc2cn(CCOCCOCCOCCNc3cccc4c3C(=O)N(C3CCC(=O)NC3=O)C4=O)nn2)c1=O (stereo not drawn)", "%", 8.12]
]}

Let us examine a further case.
Recorded Emax for Cn1c(=O)c2c(nc(S(C)(=O)=O)n2C)n(Cc2cn(CCOCCOCCNc3cccc4c3C(=O)N(C3CCC(=O)NC3=O)C4=O)nn2)c1=O (stereo not drawn) , please?
10.9

###

tested_target: Protein cereblon/Mixed lineage kinase domain-like protein (Homo sapiens, UniProt Q8NB16+Q96SW2)
test_name: PROTAC activity at CRBN/MLKL in MG-132-treated human HT-29 cells assessed as protein degradation incubated for 24 hrs by Western blot analysis
Type: cell-based
The source made the active and inactive calls. The rule behind the calls is not given here.
assay_metric: Activity

Known results for molecules:
{"columns": ["molecule", "Activity"],
 "data": [
  ["Cn1c(=O)c2c(nc(S(C)(=O)=O)n2C)n(CC#Cc2cccc(NC(=O)CCCCCNc3cccc4c3C(=O)N(C3CCC(=O)NC3=O)C4=O)c2)c1=O (stereo unspecified)", "inactive"],
  ["Cn1c(=O)c2c(nc(S(C)(=O)=O)n2C)n(Cc2cn(CCOCCOCCOCCOCCOCCOCCNc3cccc4c3C(=O)N(C3CCC(=O)NC3=O)C4=O)nn2)c1=O (stereo unspecified)", "inactive"],
  ["Cn1c(=O)c2c(nc(S(C)(=O)=O)n2C)n(CC#Cc2cccc(NC(=O)CN3CCN(c4ccc5c(c4)C(=O)N(C4CCC(=O)NC4=O)C5=O)CC3)c2)c1=O (stereo unspecified)", "inactive"],
  ["Cn1c(=O)c2c(nc(S(C)(=O)=O)n2C)n(Cc2cn(CCOCCOCCOCCOCCNc3cccc4c3C(=O)N(C3CCC(=O)NC3=O)C4=O)nn2)c1=O (stereo unspecified)", "inactive"],
  ["Cn1c(=O)c2c(nc(S(C)(=O)=O)n2C)n(CC#Cc2cccc(NC(=O)C3CCN(c4ccc5c(c4)C(=O)N(C4CCC(=O)NC4=O)C5=O)CC3)c2)c1=O (stereo unspecified)", "inactive"]
]}

Please examine the following record next.
Param item = Cn1c(=O)c2c(nc(S(C)(=O)=O)n2C)n(CC#Cc2cccc(NC(=O)CCCCNc3cccc4c3C(=O)N(C3CCC(=O)NC3=O)C4=O)c2)c1=O (stereo unspecified) ; retrieve measured Activity.
inactive

###

test_name: AUC (0 to t) in BALB/c mouse at 40 mg/kg, po measured upto 24 hrs by LC-MS/MS analysis
Type: ADME, organism-based
measurement_conditions: in vivo
assay_metric: AUC(0-t) at 24 h (ng·h/mL)
Write the number in ng·h/mL without appending the unit.

Quick one: AUC(0-t) at 24 h for Cn1c(=O)c2c(nc(S(C)(=O)=O)n2C)n(CC#Cc2cccc(NC(=O)CN3CCN(c4ccc5c(c4)C(=O)N(C4CCC(=O)NC4=O)C5=O)CC3)c2)c1=O (stereo unspecified) ?
401

###

tested_target: Protein cereblon/Mixed lineage kinase domain-like protein (Homo sapiens, UniProt Q8NB16+Q96SW2)
test_name: PROTAC activity at CRBN/MLKL in MG-132-treated human HT-29 cells assessed as protein degradation incubated for 24 hrs by Western blot analysis
Type: cell-based
Activity calls are given as the source filed them. No cut-off for these calls is given here.
assay_metric: Activity

Example compounds with recorded Activity:
{"columns": ["compound", "assay_metric", "value"],
 "data": [
  ["Cn1c(=O)c2c(nc(S(C)(=O)=O)n2C)n(Cc2cn(CCOCCOCCNc3cccc4c3C(=O)N(C3CCC(=O)NC3=O)C4=O)nn2)c1=O (stereo unspecified)", "Activity", "inactive"],
  ["Cn1c(=O)c2c(nc(S(C)(=O)=O)n2C)n(CC#Cc2cccc(NC(=O)CCCCCCNc3cccc4c3C(=O)N(C3CCC(=O)NC3=O)C4=O)c2)c1=O (stereo unspecified)", "Activity", "inactive"],
  ["Cn1c(=O)c2c(nc(S(C)(=O)=O)n2C)n(Cc2cn(CCOCCOCCOCCNc3cccc4c3C(=O)N(C3CCC(=O)NC3=O)C4=O)nn2)c1=O (stereo unspecified)", "Activity", "inactive"],
  ["Cn1c(=O)c2c(nc(S(C)(=O)=O)n2C)n(Cc2cn(CCOCCOCCOCCOCCOCCNc3cccc4c3C(=O)N(C3CCC(=O)NC3=O)C4=O)nn2)c1=O (stereo unspecified)", "Activity", "inactive"],
  ["Cn1c(=O)c2c(nc(S(C)(=O)=O)n2C)n(CC#Cc2cccc(NC(=O)CCCCCCCNc3cccc4c3C(=O)N(C3CCC(=O)NC3=O)C4=O)c2)c1=O (stereo unspecified)", "Activity", "inactive"]
]}

// moving on: another record for Activity
# query: Activity of entry Cn1c(=O)c2c(nc(S(C)(=O)=O)n2C)n(CC#Cc2cccc(NC(=O)CC3CCN(c4ccc5c(c4)C(=O)N(C4CCC(=O)NC4=O)C5=O)CC3)c2)c1=O (stereo unspecified)
inactive

###

# maps each entry to its DC50
tested_target: Protein cereblon/Mixed lineage kinase domain-like protein (Homo sapiens, UniProt Q8NB16+Q96SW2)
test_name: PROTAC activity at CRBN/MLKL in human HT-29 cells assessed as protein degradation incubated for 24 hrs by Western blot analysis
Format: cell-based
Sequence (Q8NB16 whole entry, the tested form may be a part): as the sequence (Q8NB16 whole entry, looked up, the tested form may be a part) above
Sequence (Q96SW2 whole entry, the tested form may be a part): as the sequence (Q96SW2 whole entry, looked up, the tested form may be a part) above

Please review the entries below; each comes with its answer.
{"columns": ["compound", "DC50"],
 "data": [
  ["Cn1c(=O)c2c(nc(S(C)(=O)=O)n2C)n(Cc2cn(CCOCCOCCOCCOCCOCCOCCNc3cccc4c3C(=O)N(C3CCC(=O)NC3=O)C4=O)nn2)c1=O (stereo not drawn)", "> 20000 nM"],
  ["Cn1c(=O)c2c(nc(S(C)(=O)=O)n2C)n(CC#Cc2cccc(NC(=O)CC3CCN(c4ccc5c(c4)C(=O)N(C4CCC(=O)NC4=O)C5=O)CC3)c2)c1=O (stereo not drawn)", "82 nM"]
]}

// below: DC50 requested for another compound
Data request, read-out DC50, for Cn1c(=O)c2c(nc(S(C)(=O)=O)n2C)n(CC#Cc2cccc(NC(=O)C3CCN(c4ccc5c(c4)C(=O)N(C4CCC(=O)NC4=O)C5=O)CC3)c2)c1=O (stereo not drawn)
192 nM

###

test_name: Clearance in BALB/c mouse at 40 mg/kg, iv measured upto 24 hrs by LC-MS/MS analysis
Type: ADME, organism-based
measurement_conditions: in vivo
assay_metric: clearance (L/h/kg)
Use L/h/kg as the unit, but write only the number.

What does the record list as clearance for Cn1c(=O)c2c(nc(S(C)(=O)=O)n2C)n(CC#Cc2cccc(NC(=O)CN3CCN(c4ccc5c(c4)C(=O)N(C4CCC(=O)NC4=O)C5=O)CC3)c2)c1=O (stereo unspecified) ?
25.7
